- Measurement target: PD-1/PD-L1 interaction (PD-1-Ig / PD-L1-His) (Homo sapiens, UniProt Q9NZQ7)
- Construct: hPDL1(18-239)-TVMV-His; TVMV protease site linker (C); made in house; host or cells: HEK293T
- Sequence (Q9NZQ7 with tags, fused parts or gaps): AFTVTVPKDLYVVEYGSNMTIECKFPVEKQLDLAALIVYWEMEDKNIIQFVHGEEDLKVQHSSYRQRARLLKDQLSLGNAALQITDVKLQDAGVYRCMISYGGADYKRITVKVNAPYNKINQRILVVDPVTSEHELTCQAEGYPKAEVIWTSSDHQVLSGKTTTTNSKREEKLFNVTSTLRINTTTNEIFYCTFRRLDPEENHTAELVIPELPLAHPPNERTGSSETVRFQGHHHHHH
- Procedure text: PD-1/PD-L1 Homogenous Time-Resolved Fluorescence (HTRF) binding assay
- Study conditions: IC50 range class; PD-L1-His 10 nM, PD-1-Ig 20 nM; read-out: Range or IC50
- Source text: The ability of the compounds of formula (I) to bind to PD-L1 was investigated using a PD-1/PD-L1 Homogenous Time-Resolved Fluorescence (HTRF) binding assay. Homogenous Time-Resolved Fluorescence (HTRF) Binding Assay. The interaction of PD-1 and PD-L1 can be assessed using soluble, purified preparations of the extracellular domains of the two proteins. […]
Measurement type: IC50

Please review the following examples before continuing.
Cc1c(COc2cc(OCc3cncc(C#N)c3)c(CO)cc2Cl)cccc1-c1cccc(COc2cc(OCc3cncc(C#N)c3)c(CN[C@@H](CCO)C(=O)O)cc2Cl)c1C [Example 50360] :: 0.04 to 20 nM
Cc1c(OCCCN(C)CC(O)CO)cccc1-c1cccc(OCCCN(C)CC(O)CO)c1C (mixture of isomers) :: 0.04 to 20 nM
N#Cc1cncc(COc2cc(OCc3cccc(-c4cccc(COc5cc(OCc6cncc(C#N)c6)c(C(=O)NCC6CCCO6)cc5Cl)c4Cl)c3Cl)c(Cl)cc2C(=O)O)c1 (stereo not drawn) :: 1000 to 10000 nM
N#Cc1cncc(COc2cc(OCc3cccc(-c4cccc(COc5cc(OCc6cncc(C#N)c6)c(C(=O)NCC6(CO)CC6)cc5Cl)c4Cl)c3Cl)c(Cl)cc2C(=O)O)c1 :: 90.1 to 1000 nM
Cc1c(OCCCNC2CCN(CCO)CC2)cccc1-c1cccc(OCCCN2CC[C@@H](O)C2)c1C :: 20.1 to 90 nM

Inquiry: Name the reported IC50 value associated with the molecule COC(=O)CC(O)CNCc1cc(Cl)c(OCc2cccc(-c3cccc(COc4cc(OCc5cncc(C#N)c5)c(CNC/C=C\C(=O)O)cc4Cl)c3C)c2C)cc1OCc1cncc(C#N)c1 (stereo not drawn)
Reply text: 20.1 to 90 nM
